Test system: Escherichia coli
Assay: Antibacterial activity against Escherichia coli CMCC (B) 44102 at 320 ug/ml after 24 to 36 hrs by oxford cup assay
Type: functional
Details: read-out: DIZ
Reported zone of inhibition at 320 µg/mL values for a set of compounds

# compound, unit_text, zone of inhibition at 320 µg/mL
data = [
    ("C=C[C@]1(C)C[C@@H](OC(=O)CSc2nc(N)cc(NC(=O)CN(C)C)n2)[C@]2(C)[C@H](C)CC[C@]3(CCC(=O)[C@H]32)[C@@H](C)[C@@H]1O", "mm", 12.1),
    ("C=C[C@]1(C)C[C@@H](OC(=O)CSCCN(CC)CC)[C@]2(C)[C@H](C)CC[C@]3(CCC(=O)[C@H]32)[C@@H](C)[C@@H]1O [TIAMULIN]", "mm", 13.3),
    ("C=C[C@]1(C)C[C@@H](OC(=O)CSc2nc(N)cc(NC(=O)CN3CC[C@H](O)C3)n2)[C@]2(C)[C@H](C)CC[C@]3(CCC(=O)[C@H]32)[C@@H](C)[C@@H]1O", "mm", 10.5),
]

###

System: Escherichia coli
Assay: Antibacterial activity against Escherichia coli CMCC (B) 44102 at 320 ug/ml after 24 to 36 hrs by oxford cup assay
Type: functional
Settings: read-out: DIZ
attribute_measured: zone of inhibition at 320 µg/mL (mm)

# structure_string, unit_text, recorded_value
rows = [
    ("C=C[C@]1(C)C[C@@H](OC(=O)CSc2nc(N)cc(NC(=O)CN3CCC(O)CC3)n2)[C@]2(C)[C@H](C)CC[C@]3(CCC(=O)[C@H]32)[C@@H](C)[C@@H]1O", "mm", 11.4),
    ("C=C[C@]1(C)C[C@@H](OC(=O)CSc2nc(N)cc(N)n2)[C@]2(C)[C@H](C)CC[C@]3(CCC(=O)[C@H]32)[C@@H](C)[C@@H]1O", "mm", 14.2),
    ("C=C[C@]1(C)C[C@@H](OC(=O)CSc2nc(N)cc(NC(=O)CN3CCOCC3)n2)[C@]2(C)[C@H](C)CC[C@]3(CCC(=O)[C@H]32)[C@@H](C)[C@@H]1O", "mm", 11.9),
    ("C=C[C@]1(C)C[C@@H](OC(=O)CSc2nc(N)cc(NC(=O)CN3CCC(CCO)CC3)n2)[C@]2(C)[C@H](C)CC[C@]3(CCC(=O)[C@H]32)[C@@H](C)[C@@H]1O", "mm", 12.7),
    ("C=C[C@]1(C)C[C@@H](OC(=O)CSc2nc(N)cc(NC(=O)CN3CCC[C@@H](CO)C3)n2)[C@]2(C)[C@H](C)CC[C@]3(CCC(=O)[C@H]32)[C@@H](C)[C@@H]1O", "mm", 13.3),
]

###

System: Escherichia coli
Experiment: Antibacterial activity against Escherichia coli CMCC (B) 44102 at 320 ug/ml after 24 to 36 hrs by oxford cup assay
Assay type: functional
Conditions: read-out: DIZ
Reported zone of inhibition at 320 µg/mL values for a set of compounds
attribute_measured: zone of inhibition at 320 µg/mL (mm)

# structure_string, unit_text, recorded_value
data = [
    ("C=C[C@]1(C)C[C@@H](OC(=O)CSc2nc(N)cc(NC(=O)CN(CC)CC)n2)[C@]2(C)[C@H](C)CC[C@]3(CCC(=O)[C@H]32)[C@@H](C)[C@@H]1O", "mm", 12),
    ("C=C[C@]1(C)C[C@@H](OC(=O)CSc2nc(N)cc(NC(=O)CN3CCCC3)n2)[C@]2(C)[C@H](C)CC[C@]3(CCC(=O)[C@H]32)[C@@H](C)[C@@H]1O", "mm", 13.4),
    ("C=C[C@]1(C)C[C@@H](OC(=O)CSc2nc(N)cc(NC(=O)CN3CCCCC3)n2)[C@]2(C)[C@H](C)CC[C@]3(CCC(=O)[C@H]32)[C@@H](C)[C@@H]1O", "mm", 10.3),
]

###

Reported MIC values for a set of compounds
Tested on: Staphylococcus aureus
Experiment: Antibacterial activity against […] Staphylococcus aureus ATCC 29213 after 24 to 48 hrs by agar dilution method
Assay type: functional

# structure_string, unit_text, MIC
rows = [
    ("C=C[C@]1(C)C[C@@H](OC(=O)CSc2nc(N)cc(NC(=O)CN3CCCCC3)n2)[C@]2(C)[C@H](C)CC[C@]3(CCC(=O)[C@H]32)[C@@H](C)[C@@H]1O", "µg/mL", 0.25),
    ("C=C[C@]1(C)C[C@@H](OC(=O)CSc2nc(N)cc(NC(=O)CN3CC[C@H](O)C3)n2)[C@]2(C)[C@H](C)CC[C@]3(CCC(=O)[C@H]32)[C@@H](C)[C@@H]1O", "µg/mL", 0.125),
    ("C=C[C@]1(C)C[C@@H](OC(=O)CSc2nc(N)cc(NC(=O)CN3CCC[C@@H](CO)C3)n2)[C@]2(C)[C@H](C)CC[C@]3(CCC(=O)[C@H]32)[C@@H](C)[C@@H]1O", "µg/mL", 0.125),
    ("C=C[C@]1(C)C[C@@H](OC(=O)CSc2nc(N)cc(NC(=O)CN3CCC(O)CC3)n2)[C@]2(C)[C@H](C)CC[C@]3(CCC(=O)[C@H]32)[C@@H](C)[C@@H]1O", "µg/mL", 0.25),
    ("C=C[C@]1(C)C[C@@H](OC(=O)CSc2nc(N)cc(NC(=O)CN(CC)CC)n2)[C@]2(C)[C@H](C)CC[C@]3(CCC(=O)[C@H]32)[C@@H](C)[C@@H]1O", "µg/mL", 0.5),
    ("C=C[C@]1(C)C[C@@H](OC(=O)CSCCN(CC)CC)[C@]2(C)[C@H](C)CC[C@]3(CCC(=O)[C@H]32)[C@@H](C)[C@@H]1O", "µg/mL", 0.25),
    ("C=C[C@]1(C)C[C@@H](OC(=O)CSc2nc(N)cc(N)n2)[C@]2(C)[C@H](C)CC[C@]3(CCC(=O)[C@H]32)[C@@H](C)[C@@H]1O", "µg/mL", 0.125),
    ("C=C[C@]1(C)C[C@@H](OC(=O)CSc2nc(N)cc(NC(=O)CN3CCC(CCO)CC3)n2)[C@]2(C)[C@H](C)CC[C@]3(CCC(=O)[C@H]32)[C@@H](C)[C@@H]1O", "µg/mL", 1),
]

###

Tested on: Escherichia coli
Test: Antibacterial activity against Escherichia coli CMCC (B) 44102 after 24 to 48 hrs by agar dilution method
Type: functional
Reported MIC values for a set of molecules

# structure_string, MIC / µg/mL
rows = [
    ("C=C[C@]1(C)C[C@@H](OC(=O)CSc2nc(N)cc(NC(=O)CN3CCCCC3)n2)[C@]2(C)[C@H](C)CC[C@]3(CCC(=O)[C@H]32)[C@@H](C)[C@@H]1O", 8),
    ("C=C[C@]1(C)C[C@@H](OC(=O)CSc2nc(N)cc(NC(=O)CN3CCC(O)CC3)n2)[C@]2(C)[C@H](C)CC[C@]3(CCC(=O)[C@H]32)[C@@H](C)[C@@H]1O", 4),
    ("C=C[C@]1(C)C[C@@H](OC(=O)CSc2nc(N)cc(NC(=O)CN(CC)CC)n2)[C@]2(C)[C@H](C)CC[C@]3(CCC(=O)[C@H]32)[C@@H](C)[C@@H]1O", 8),
]

###

System: Staphylococcus aureus
Assay: Antibacterial activity against Staphylococcus aureus CMCC (B) 26003 after 24 to 48 hrs by agar dilution method
Format: functional
Reported MIC values for a set of compounds
attribute_measured: MIC (mg/L)

# structure_string, attribute_measured, recorded_value
data = [
    ("C=C[C@]1(C)C[C@@H](OC(=O)CSc2nc(N)cc(NC(=O)CN3CCC(O)CC3)n2)[C@]2(C)[C@H](C)CC[C@]3(CCC(=O)[C@H]32)[C@@H](C)[C@@H]1O", "MIC", 0.125),
    ("C=C[C@]1(C)C[C@@H](OC(=O)CSc2nc(N)cc(NC(=O)CN3CCCC3)n2)[C@]2(C)[C@H](C)CC[C@]3(CCC(=O)[C@H]32)[C@@H](C)[C@@H]1O", "MIC", 0.125),
    ("C=C[C@]1(C)C[C@@H](OC(=O)CSc2nc(N)cc(NC(=O)CN3CCC(CCO)CC3)n2)[C@]2(C)[C@H](C)CC[C@]3(CCC(=O)[C@H]32)[C@@H](C)[C@@H]1O", "MIC", 0.125),
    ("C=C[C@]1(C)C[C@@H](OC(=O)CSc2nc(N)cc(NC(=O)CN3CC[C@H](O)C3)n2)[C@]2(C)[C@H](C)CC[C@]3(CCC(=O)[C@H]32)[C@@H](C)[C@@H]1O", "MIC", 0.125),
    ("C=C[C@]1(C)C[C@@H](OC(=O)CSc2nc(N)cc(N)n2)[C@]2(C)[C@H](C)CC[C@]3(CCC(=O)[C@H]32)[C@@H](C)[C@@H]1O", "MIC", 0.0625),
]
